Documented pKD across a set of compounds
target: UniProt:P35367; experiment: NanoBRET saturation binding assay on Nluc-H1R expressing HEK293T cells; parameters: expressed in transfected cells; conditions: saturation binding curves, whole HEK293T cells, non-specific with 10 μM mepyramine; mean ± SEM
Sequence (P35367 whole entry): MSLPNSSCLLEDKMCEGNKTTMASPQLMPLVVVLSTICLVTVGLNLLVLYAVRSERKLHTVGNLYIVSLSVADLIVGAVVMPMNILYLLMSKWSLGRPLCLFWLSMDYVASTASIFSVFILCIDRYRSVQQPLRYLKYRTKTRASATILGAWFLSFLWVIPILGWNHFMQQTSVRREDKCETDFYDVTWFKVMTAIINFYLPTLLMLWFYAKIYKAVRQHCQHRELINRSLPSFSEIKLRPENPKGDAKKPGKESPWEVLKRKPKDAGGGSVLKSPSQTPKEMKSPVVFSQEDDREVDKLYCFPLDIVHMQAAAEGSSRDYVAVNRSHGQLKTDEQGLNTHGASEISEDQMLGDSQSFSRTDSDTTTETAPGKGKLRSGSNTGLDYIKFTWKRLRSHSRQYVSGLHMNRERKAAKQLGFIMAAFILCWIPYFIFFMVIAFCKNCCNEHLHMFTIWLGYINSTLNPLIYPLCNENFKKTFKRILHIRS
Square brackets hold non-standard residues; d marks the D form. Side chains are listed from the residue outwards. Peptide text beside a SMILES is read from it. * marks the point of attachment. X1 = O=C(COc1ccc(/C=C/C2=[N+]3C(=Cc4ccc(-c5cccs5)n4[B-]3(F)F)C=C2)cc1)*; Propanoyl(3-Pip(4-O-2-BnPh)) = O=C(CCN1CCC(Oc2ccccc2Cc2ccccc2)CC1)*; X3 = Cc1cc(C)n2c1C=C1C=CC(/C=C/c3ccc(OCC(=O)*)cc3)=[N+]1[B-]2(F)F; Ahx = NCCCCCC(=O)O; βAla = NCCC(=O)O
Assay readout: pKD

Compound	Assay readout	Test result
C[C@H](NC(=O)[C@H](C)NC(=O)[C@H](Cc1ccccc1)NC(=O)CCN1CCC(Oc2ccccc2Cc2ccccc2)CC1)C(=O)NCCC(=O)N[C@@H](CCCCNC(=O)CCCCCNC(=O)COc1ccc(/C=C/C2=[N+]3C(=Cc4ccc(-c5cccs5)n4[B-]3(F)F)C=C2)cc1)C(N)=O [Compound 39a] ({Propanoyl(3-Pip(4-O-2-BnPh))}-FAA[βAla]K([Ahx-X1])-NH2)	pKD	7.98
Cc1cc(C)n2c1C=C1C=CC(/C=C/c3ccc(OCC(=O)NCCCC[C@H](NC(=O)CCNC(=O)[C@H](C)NC(=O)[C@H](C)NC(=O)[C@H](Cc4ccccc4)NC(=O)CCN4CCC(Oc5ccccc5Cc5ccccc5)CC4)C(N)=O)cc3)=[N+]1[B-]2(F)F [Compound 39b] ({Propanoyl(3-Pip(4-O-2-BnPh))}-FAA[βAla]K(X3)-NH2)	pKD	7.36
CC(C)[C@H](NC(=O)CCN1CCC(Oc2ccccc2Cc2ccccc2)CC1)C(=O)N[C@@H](CO)C(=O)N[C@@H](Cc1ccc(O)cc1)C(=O)NCCC(=O)N[C@@H](CCCCNC(=O)COc1ccc(/C=C/C2=[N+]3C(=Cc4ccc(-c5cccs5)n4[B-]3(F)F)C=C2)cc1)C(N)=O [Compound 31e] ({Propanoyl(3-Pip(4-O-2-BnPh))}-VSY[βAla]K(X1)-NH2)	pKD	7.80
CC(C)[C@H](NC(=O)CCN1CCC(Oc2ccccc2Cc2ccccc2)CC1)C(=O)N[C@@H](CCC(=O)O)C(=O)N[C@@H](CC(N)=O)C(=O)N[C@@H](Cn1cc(COc2ccc(/C=C/C3=[N+]4C(=Cc5ccc(-c6cccs6)n5[B-]4(F)F)C=C3)cc2)nn1)C(N)=O [Compound 22c]	pKD	6.79
C[C@H](NC(=O)CCN1CCC(Oc2ccccc2Cc2ccccc2)CC1)C(=O)N[C@@H](C)C(=O)N[C@@H](C)C(=O)NCCC(=O)N[C@@H](CCCn1cc(COc2ccc(/C=C/C3=[N+]4C(=Cc5ccc(-c6cccs6)n5[B-]4(F)F)C=C3)cc2)nn1)C(N)=O [Compound 28b]	pKD	7.86
CC(C)[C@H](NC(=O)CCN1CCC(Oc2ccccc2Cc2ccccc2)CC1)C(=O)N[C@@H](CO)C(=O)N[C@@H](CC(N)=O)C(=O)NCCC(=O)N[C@@H](CCCCNC(=O)COc1ccc(/C=C/C2=[N+]3C(=Cc4ccc(-c5cccs5)n4[B-]3(F)F)C=C2)cc1)C(N)=O [Compound 31a] ({Propanoyl(3-Pip(4-O-2-BnPh))}-VSN[βAla]K(X1)-NH2)	pKD	8.40

Numbers sourced from paper PMC9234962.
